Assay: splicing luciferase reporter signal modulators, primary screen, spliceosome inhibition project, cell-based, HEK293, splice +/- reporter (AID 1101);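 note: HEK293 cells carrying a splicing-competent luciferase reporter gene; test concentration not given here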
Details: luminescence, 24 h, higher = more signal, called active from +8 up or from −8 down
Experimental endpoint: z-score
API note: the answer field is a bare number with no unit suffix.

Below, each entry is followed by its recorded z-score result.
Compound: CO[C@H]1COC(=O)[C@H](C)COC(=O)[C@@H](OCc2ccccc2)C=C[C@@H]1C
z-score: 0.0228

Compound: COC(=O)[C@H](C)NC(=O)CCC1CC(OC(=O)NCc2cccc3ccccc23)CC2(CCCC(COC(=O)NCCCN3CCCC3=O)O2)O1 (some centres not stated)
z-score: -0.915

Compound: CCCNC(=O)OC[C@H]1O[C@H](CCON=C2c3cc(OC)ccc3O[C@H](c3cccc(OC)c3)[C@H]2O)C=C[C@@H]1Oc1ccc(OC)cc1
z-score: -0.553

Compound: CC(=O)OC[C@H]1O[C@H](CC=NOC(C)CN2CCCCc3nc(C)c(C)cc32)C=C[C@@H]1OC(C)=O (some centres not stated)
z-score: 0.375

Compound: COc1ccc2c(c1)O[C@@H](c1cccc(C(F)(F)F)c1)[C@H](O)C2=O
z-score: -0.912

Compound: CO[C@H]1COC(=O)CC=C[C@@H](C)COC(=O)[C@H]2CCCN2C(=O)CC=C[C@H]1C
z-score: -0.104

In: What value of measured z-score is listed for O=C1[C@H]2[C@H]3[C@H](O)[C@H](O)CC(=NO[C@@H]4O[C@H](CO)[C@@H](O)[C@H](O)[C@H]4O)[C@H]3CC[C@H]2C(=O)N1c1ccc(F)cc1F ?
Out: 0.324

###

Target: Neurogenic locus notch homolog protein 2 (Homo sapiens)
Assay: Notch2 binders on small-molecule microarrays, primary screen, biochemical, small-molecule microarray, 635 nm fluorescence, stem cell growth factors (AID 1073)
Details: Notch2 binding, higher = more signal
Experimental endpoint: composite z-score
API note: the answer field is a bare number with no unit suffix.

Below, each entry is followed by its recorded composite z-score result.
Structure as smiles: C[C@@H](c1ccccc1)N1C(=O)[C@H]2[C@H]3[C@H](O)[C@H](O)CC(=NOC[C@@H](O)COCc4ccco4)[C@H]3CC[C@H]2C1=O
Target or test system: Neurogenic locus notch homolog protein 2 (Homo sapiens)
Readout value: -0.206

Structure as smiles: CC(C)=CCCC(C)=CCON=C1[C@H]2CCn3c(=O)n(-c4ccccc4)c(=O)n3[C@H]2[C@H](O)[C@@H]2O[C@H]12
Target or test system: Neurogenic locus notch homolog protein 2 (Homo sapiens)
Readout value: 0.934

Structure as smiles: CC(CCN1CCc2nc(-c3ccccc3)c(-c3ccccc3)cc2C1)=NO[C@@H](C)c1cc(-c2c(C)cc(C)cc2C)no1
Target or test system: Neurogenic locus notch homolog protein 2 (Homo sapiens)
Readout value: -0.846

Now look at this one.
In: What value of measured composite z-score is listed for C=CC[C@@H]1C=C[C@H](ON=C(C)CCN2CCCCc3nc(C)c(C)cc32)[C@@H](CO)O1 ?
Out: 0.145

###

Target: Epidermal growth factor receptor (Homo sapiens)
Experiment: EGFR binders on small-molecule microarrays, primary screen, biochemical, small-molecule microarray, 635 nm fluorescence (AID 1104);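 note: score merges 667 nm emission intensity with spot signal to noise over triplicate slides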
Settings: EGFR binding, higher = more signal
The entries below are paired with their reported composite z-score.
API note: the answer field is a bare number with no unit suffix.

Below, each entry is followed by its recorded composite z-score result.
Compound: COc1ccc(-c2cnnc(CCCn3ccnc3-c3ccccc3)n2)cc1
composite z-score: 0.929
//
Compound: O=C(NCCC[N+]1=CC=NC1c1ccccc1)N1CCCc2nc(-c3ccc(Br)cc3)ccc21 (stereo not drawn)
composite z-score: 0.221
//
Compound: O=C1[C@H]2[C@H]3[C@H](O)[C@H](O)CC(=NO[C@@H]4O[C@H](CO)[C@@H](O)[C@H](O)[C@H]4O)[C@H]3CC[C@H]2C(=O)N1c1ccc(F)cc1F
composite z-score: 0.172
//
Compound: CCCNC(=O)OC[C@H]1O[C@H](CCON=C[C@@H](NS(=O)(=O)c2ccc(C)cc2)[C@H](C)C=CCC(=O)OC)C=C[C@@H]1Oc1ccc(OC)cc1
composite z-score: -0.147
//
Compound: C#CCCCON=C1[C@H]2CCn3c(=O)n(Cc4cc5c(cc4Cl)OCO5)c(=O)n3[C@H]2[C@H](O)[C@@H]2O[C@H]12
composite z-score: 0.664

In: What value of measured composite z-score is listed for CO[C@@H]1[C@H](O)CO[C@H]1C=Cc1ccccc1 ?
Out: 0.0571

In: // same read-out, input: Cc1ccc(C(C)C)n1C(=O)OC(C)(C)C
Out: 0.55

In: // same read-out, input: C=CC[C@@H]1C=C[C@H](ON=C[C@@H](NS(=O)(=O)c2ccc(C)cc2)[C@H](C)C=CCC(=O)OC)[C@@H](CO)O1
Out: 0.516
